- System: EKVX NSCLC
- procedure.details: NCI tumour cell line growth inhibition, 48 h
quantity.name: GI50

compound	value.measured
Cc1cc(S(=O)(=O)/N=C(\N)n2nc(C)c(C)c2C)c(SCc2ccccc2)cc1Cl	5.38 µM
CCOC(=O)c1ccc(C(O)CC(=O)OC(C)(C)C)[nH]1 (stereo not drawn)	22.7 µM
Nc1c(C(=O)Nc2cccc3ccccc23)sc2nc3c(cc12)CCCCC3	1.35 µM

---

- System: SNB-19 CNS
- procedure.details: NCI tumour cell line growth inhibition, 48 h
// reported TGI per item

compound	TGI
COCC1OCCN1C (stereo unspecified)	> 100 µM
CCOC(=O)c1ccc2[nH]c(Cc3[nH]c4ccc(C(=O)OCC)cc4c3C)c(C)c2c1	25.9 µM
Cc1nn(-c2ccccc2)c2nc3c(c(C)nn3-c3ccccc3)c(-c3ccccc3Br)c12	> 100 µM
CCOC(=O)C(=O)Nc1ccc([N+](=O)[O-])cc1C#N	> 100 µM
CCOC(=O)C1=C(C)C2C3C(=O)NC(=O)C3C1(C)C1C(=O)NC(=O)C21 (stereo unspecified)	> 100 µM
COc1ccc(C2c3cc4c(cc3OC(O)(CO)C2C(=O)O)OCO4)c(OC)c1OC (stereo unspecified) (tested in a mixture with another compound)	> 100 µM
CC(C)CC(NC(=O)OCc1ccccc1)C(=O)NCCCCC(N)C(=O)NC(CCCCNC(=O)C(CC(C)C)NC(=O)OCc1ccccc1)C(=O)NC(CCCCNC(=O)C(CC(C)C)NC(=O)OCc1ccccc1)C(=O)NC(CCCCNC(=O)C(CC(C)C)NC(=O)OCc1ccccc1)C(=O)NC(CCCCNC(=O)C(CC(C)C)NC(=O)OCc1ccccc1)C(=O)NC(CCCCNC(=O)C(CC(C)C)NC(=O)OCc1ccccc1)C(=O)O (stereo unspecified)	> 100 µM
O=c1c2c([nH]c3nccn13)CCCC2	> 10 µM
C=C1C(C2(C)C=CC(=O)OC3(C)COC(=O)CC32)C(OC=O)C(OC(=O)C(O)C(C)CC)C2(C)C(c3ccoc3)CC(OC(C)=O)C12O (stereo unspecified)	> 100 µM
Cc1ccc2nc(CN3CCCCC3)cc(=O)n2c1	> 100 µM
[N-]=[N+]=Nc1cc(=O)n(-c2ccccc2)c(=O)n1-c1ccccc1	> 100 µM
O=C1NC(=O)[C@H]2C3C=CC([C@@H]12)[C@@H]1C(=O)NC(=O)[C@H]31	> 100 µM
C/C(=C\c1csc(C)n1)[C@@H]1C[C@@H]2O[C@]2(C)CCC[C@H](C)[C@H](O)[C@@H](C)C(=O)C(C)(C)[C@@H](O)CC(=O)O1 (tested in a mixture with another compound)	> 1 µM
Cc1nc(Nc2ccccc2)sc1C(=O)NNC(N)=O	> 100 µM
CC1=C(N(C)C)C(=O)c2nc3n(c2C1=O)CCC3OC(N)=O (stereo unspecified)	31.4 µM
COc1cc2c(cc1OCCCCCN1CCN(c3cc(=O)oc4c(C)c(OC)ccc34)CC1)N=C[C@@H]1CCCN1C2=O	8.82 µM

---

- System: SK-MEL-28 melanoma
- procedure.details: NCI tumour cell line growth inhibition, 48 h

compound	GI50
O=C(c1cccs1)c1c(C(F)(F)F)n([O-])c2cc(C(F)(F)F)ccc2[n+]1=O	0.694 µM
CCC(=O)Nc1ccc2c(c1)CN1C(=O)c3ccccc3C1=N2	> 100 µM
CC(=O)[CH-]C(C)=O.CC(=O)[CH-]C(C)=O.CC(=O)[CH-]C(C)=O.[Cl-].[Hf+4]	> 100 µM
Cc1cc(Nc2nc(N3CCOCC3)nc3ccccc23)n[nH]1	20.4 µM
O=C1CC(N2C(=O)/C(=C/C(Cl)=C\c3ccc([N+](=O)[O-])cc3)SC2=S)C(=O)N1c1ccc(Cl)cc1 (stereo not given)	1.71 µM
